Just for reference, patent US20250353848A1 is where these values come from.

assayed system: hPAD4 enzyme (Homo sapiens)
Sequence (Q9UM07 whole entry): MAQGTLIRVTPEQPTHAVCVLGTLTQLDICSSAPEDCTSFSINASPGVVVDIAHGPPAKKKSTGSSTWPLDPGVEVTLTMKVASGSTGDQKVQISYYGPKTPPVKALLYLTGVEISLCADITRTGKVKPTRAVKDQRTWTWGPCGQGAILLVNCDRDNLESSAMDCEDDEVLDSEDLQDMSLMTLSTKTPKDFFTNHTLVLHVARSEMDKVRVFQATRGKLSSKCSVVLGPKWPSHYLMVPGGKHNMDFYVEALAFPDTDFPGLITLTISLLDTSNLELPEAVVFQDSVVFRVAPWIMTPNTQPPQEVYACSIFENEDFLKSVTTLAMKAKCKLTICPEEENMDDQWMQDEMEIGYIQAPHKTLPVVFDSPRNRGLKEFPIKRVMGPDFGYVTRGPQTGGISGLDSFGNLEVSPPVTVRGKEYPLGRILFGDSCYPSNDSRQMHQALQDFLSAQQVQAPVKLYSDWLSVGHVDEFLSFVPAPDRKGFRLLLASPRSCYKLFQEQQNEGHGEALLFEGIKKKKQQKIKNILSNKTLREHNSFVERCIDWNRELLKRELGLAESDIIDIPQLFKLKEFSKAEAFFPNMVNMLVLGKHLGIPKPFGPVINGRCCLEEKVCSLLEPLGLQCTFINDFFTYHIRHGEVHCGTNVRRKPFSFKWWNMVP
run description: RFMS Assay 2 (rapid-fire mass spectrum PAD4 inhibition assay, peptide substrate)
Format: biochemical
condition label: 35 nM recombinant human PAD4, substrate TSTGGRQGSHH, room temperature for 30 minutes; read-out: human PAD4 (hPAD4) IC50, RFMS Assay 2
pIC50: −log10 of the molar value.
Each entry below lists one item and its recorded pIC50 value.
attribute measured: pIC50

>>> print(df.to_string())
                                   molecule        result
0  COc1cccc2cc(-c3nc4cc5c(nc4n3C)CCN(C[C@H](N)CF)C5=O)n(Cc3oncc3C)c12  6.30 to 7.00
1  Cn1c(-c2cc3ccccc3n2CC2CC2)nc2cc3c(nc21)CCN(C[C@H](N)CF)C3=O  6.00 to 6.30
2  Cc1ncoc1CCOc1cccc2cc(-c3nc4cc5c(nc4n3C)CCN(C[C@H](N)CF)C5=O)n(CC3CC3)c12  6.30 to 7.00
3  Cn1c(-c2cc3ccc(C(C)(C)O)nc3n2CC2CC2)nc2cc3c(nc21)CCN(C[C@H](N)CF)C3=O  6.00 to 6.30
4  Cn1c(-c2cc3cccc(OCCc4ccn[nH]4)c3n2CC2CC2)nc2cc3c(nc21)CCN(C[C@H](N)CF)C3=O  7.00 to 7.96
5  Cn1c(-c2cc3cccc(OC[C@@H]4CNC(=O)C4)c3n2CC2CC2)nc2cc3c(nc21)CCN(C[C@H](N)CF)C3=O  7.00 to 7.96
6  CC(Cc1cnco1)Oc1cc(F)cc2cc(-c3nc4cc5c(nc4n3C)CCN(C[C@H](N)CF)C5=O)n(CC3CC3)c12 (single isomer, unassigned) [Example 65a]  6.30 to 7.00
